Values were extracted from ChEMBL document CHEMBL1201862.

Parameter: GI50. Scope: all listed entries.
System: RXF 393
Experiment: NCI tumour cell line growth inhibition, 48 h
Counter-ions that a name gives are not always drawn. Activity calls are given as the source filed them. Cut-off read from the data, not from the text of the source: active = GI50 up to about 1.1 µM and inactive = higher.
observed-property: GI50

INSERT INTO measurements (compound, assayed_system, observed_property, observed_value) VALUES
  ('O=C(O)c1ccccc1-c1ccccc1C(=O)c1ccccc1', 'RXF 393', 'GI50', '> 100 µM (inactive)'),
  ('NCCSSCCN [CYSTAMINE HYDROCHLORIDE]', 'RXF 393', 'GI50', '> 100 µM (inactive)'),
  ('COc1cc2oc(-c3ccc(O)cc3)cc(=O)c2c(OC)c1OC', 'RXF 393', 'GI50', '> 100 µM (inactive)'),
  ('CC1(C)CC(=O)c2c([nH]c(=S)c(C#N)c2-c2ccc(Br)cc2)C1', 'RXF 393', 'GI50', '33.7 µM (inactive)'),
  ('CCOC(=O)COC1=Nc2cc(OC)c(OC)c3nc(Cl)cc(c23)C1=O', 'RXF 393', 'GI50', '1.75 µM (inactive)'),
  ('C[C@H]1CCCCC[C@@H]2CC(=O)CC2C(=O)CCC(=O)O1 (some centres undefined)', 'RXF 393', 'GI50', '> 100 µM (inactive)'),
  ('Nc1ccc2c(SCC(=O)Nc3ccccc3-c3ccccc3NC(=O)CSc3c4ccccc4nc4cc(N)ccc34)c3ccccc3nc2c1', 'RXF 393', 'GI50', '34.9 µM (inactive)'),
  ('O=C1CCC2(O)c3ccccc3C2Cc2ccccc21 (centres undefined)', 'RXF 393', 'GI50', '> 100 µM (inactive)'),
  ('O=C(c1cccs1)N(C(=S)OCc1ccccn1)c1ccccc1', 'RXF 393', 'GI50', '31 µM (inactive)');

* * *

Tested on: COLO 205
Assay: NCI tumour cell line growth inhibition, 48 h
Where a name gives a salt, the structure may show the parent alone. Active and inactive are the calls of the source. Cut-off read from the data, not from the text of the source: active = GI50 up to about 1.1 µM and inactive = higher. *1 amine or outer side, *2 acyl side, *3 side chain or, on linkers, in order; H or OH if unused. Where a SMILES comes first, the peptide text is derived from it. Bridges are numbered along the chain shown (N, C = ends). [ ]: non-standard residue; d: D form. The star is where a group is joined. X36 = O=C(C(CCCCNO[*:3])N[*:1])[*:2]; Fmoc = O=C(OCC1c2ccccc2-c2ccccc21)*
observed-property: GI50

INSERT INTO measurements (compound, observed_property, observed_value) VALUES
  ('CS(=O)(=O)Nc1ccc2c(c1)N(S(C)(=O)=O)CC2CCl (centres undefined)', 'GI50', '> 100 µM (inactive)'),
  ('O=C(c1cc(Cl)cc(Cl)c1)N(C(=S)OC12CC3CC(CC(C3)C1)C2)c1ccccc1', 'GI50', '18.6 µM (inactive)'),
  ('CCCCc1ccc(-n2c(C)c(COC(=O)NC)c(COC(=O)NC)c2C)cc1', 'GI50', '7.21 µM (inactive)'),
  ('Cc1cc(O)c2c(c1)C(C1OC(CO)C(O)C(O)C1O)c1cc(O)cc(O)c1C2=O (centres undefined)', 'GI50', '> 100 µM (inactive)'),
  ('CCCC(=O)NC(Nc1ccc(S(=O)(=O)Nc2cc(C)on2)cc1)(C(=O)OCC)C(F)(F)F (centres undefined)', 'GI50', '> 100 µM (inactive)'),
  ('O=C(Nc1cccc(-c2cn3ccccc3n2)c1)c1ccncc1', 'GI50', '31.3 µM (inactive)'),
  ('NC(=O)CNC(=O)C1CCCN1C(=O)C1CCCCNOC(=O)CCC(NC(=O)OCC2c3ccccc3-c3ccccc32)C(=O)NC(Cc2c[nH]c3ccccc23)C(=O)N1 (centres undefined) (Fmoc-EW[X36]PG-NH2; ester 1-3; configuration not given here)', 'GI50', '> 100 µM (inactive)'),
  ('CSc1nc2c(c(O)c(C)c(=O)n2C2OCC(OC(C)=O)C(OC(C)=O)C2OC(C)=O)c(=O)n1C (centres undefined)', 'GI50', '> 100 µM (inactive)'),
  ('NCCSSCCN [CYSTAMINE HYDROCHLORIDE]', 'GI50', '> 100 µM (inactive)');
